# Species on record: Homo sapiens
# PROTOCOL SUMMARY: Inhibition of human PP2A at 100 uM
inhibition below 60% gives False; inhibition at or above it gives True.

- COMPOUND: "O=C(O)C1C(C(=O)Nc2ccccc2O)[C@H]2CC[C@@H]1O2 (some centres undefined)"
  ASSIGNED LABEL: "False"
- COMPOUND: "Cc1cccc(NC(=O)C2C(C(=O)O)[C@@H]3CC[C@H]2O3)c1C (some centres undefined)"
  ASSIGNED LABEL: "True"
- COMPOUND: "O=C(O)C1C(C(=O)NCCc2cnc[nH]2)[C@H]2CC[C@@H]1O2 (some centres undefined)"
  ASSIGNED LABEL: "False"
- COMPOUND: "O=C(O)C1C(C(=O)Nc2ccccc2CO)[C@H]2CC[C@@H]1O2 (some centres undefined)"
  ASSIGNED LABEL: "False"
- COMPOUND: "CSc1ccccc1NC(=O)C1C(C(=O)O)[C@@H]2CC[C@H]1O2 (some centres undefined)"
  ASSIGNED LABEL: "False"
- COMPOUND: "CC(C)(C)c1ccccc1NC(=O)C1C(C(=O)O)[C@@H]2CC[C@H]1O2 (some centres undefined)"
  ASSIGNED LABEL: "False"
- COMPOUND: "Cc1cc(C)c(NC(=O)C2C(C(=O)O)[C@@H]3CC[C@H]2O3)c(C)c1 (some centres undefined)"
  ASSIGNED LABEL: "False"
- COMPOUND: "Cc1cccc(C)c1NC(=O)C1C(C(=O)O)[C@@H]2CC[C@H]1O2 (some centres undefined)"
  ASSIGNED LABEL: "False"

Read the next record carefully.
[in] API: above_or_equal(metric=inhibition, cutoff=60%) for item O=C(O)C1C(C(=O)Nc2cccc3ccccc23)[C@H]2CC[C@@H]1O2 (some centres undefined)
[out] True

====

# pIC50 per record follows
# Test system: Plasmodium falciparum
# PROTOCOL SUMMARY: Antiplasmodial activity against chloroquine-resistant Plasmodium falciparum W2 assessed as inhibition of parasite LDH activity […] after 72 hrs by malstat reagent method
# Assay type: functional, organism-based
# EXPERIMENTAL PARAMETERS: W2, 72 h
To interpret pIC50, take it as minus log10 of a concentration measured in moles per litre.

The examples below pair each entry with its known result.
- MOLECULE: "C[C@@]12C(=O)OC(=O)[C@]1(C)[C@H]1CC[C@@H]2O1"
  EXPERIMENTAL RESULT: 5.05
- MOLECULE: "C#Cc1cccc(NC(=O)C2C(C(=O)O)[C@@H]3CC[C@H]2O3)c1 (stereo not given in full)"
  EXPERIMENTAL RESULT: 3.71
- MOLECULE: "O=C(O)C1C(C(=O)Nc2cccc(I)c2)[C@H]2CC[C@@H]1O2 (stereo not given in full)"
  EXPERIMENTAL RESULT: 3.55
- MOLECULE: "Cc1cccc(C)c1NC(=O)C1C(C(=O)O)[C@@H]2CC[C@H]1O2 (stereo not given in full)"
  EXPERIMENTAL RESULT: 3.54
- MOLECULE: "O=C(O)C1C(C(=O)Nc2ccc(CO)cc2)[C@H]2CC[C@@H]1O2 (stereo not given in full)"
  EXPERIMENTAL RESULT: 3.79

[in] Reported pIC50 for O=C(O)C1C(C(=O)NCCc2cnc[nH]2)[C@H]2CC[C@@H]1O2 (stereo not given in full) : what is it?
[out] 3.57

[in] Reported pIC50 for COc1ccc(CN2C(=O)C3C(C2=O)[C@H]2CC[C@@H]3O2)cc1 (stereo not given in full) : what is it?
[out] 4.60

[in] Reported pIC50 for CCCCCCCCN1C(=O)C2C(C1=O)[C@H]1CC[C@@H]2O1 (stereo not given in full) : what is it?
[out] 3.60

====

# Tested on: Plasmodium falciparum
# PROTOCOL SUMMARY: Antiplasmodial activity against chloroquine-sensitive Plasmodium falciparum D6 assessed as inhibition of parasite LDH activity after 72 hrs by malstat reagent method
# Type: functional, organism-based
# EXPERIMENTAL PARAMETERS: D6, 72 h
# pIC50 per record follows
To interpret pIC50, take it as minus log10 of a concentration measured in moles per litre.

- MOLECULE: "O=C(O)C1C(C(=O)Nc2ccc(CO)cc2)[C@H]2CC[C@@H]1O2 (some centres not stated)"
  TESTED SYSTEM: "Plasmodium falciparum"
  pIC50: 3.80
- MOLECULE: "CCCCCCN1C(=O)C2C(C1=O)[C@H]1CC[C@@H]2O1 (some centres not stated)"
  TESTED SYSTEM: "Plasmodium falciparum"
  pIC50: 3.76

[in] Reported pIC50 for CCCCCCCCCCCCNC(=O)C1C(C(=O)O)[C@@H]2CC[C@H]1O2 (some centres not stated) : what is it?
[out] 4.15

====

# Test system: Plasmodium falciparum
# PROTOCOL SUMMARY: Antiplasmodial activity against chloroquine-resistant Plasmodium falciparum W2 assessed as inhibition of parasite LDH activity […] after 72 hrs by malstat reagent method
# Format: functional, organism-based
# EXPERIMENTAL PARAMETERS: W2, 72 h
# pIC50 per record follows
To interpret pIC50, take it as minus log10 of a concentration measured in moles per litre.

- COMPOUND: "O=C(O)C1C(C(=O)Nc2ccc3ccccc3c2)[C@H]2CC[C@@H]1O2 (stereo not given in full)"
  MEASUREMENT NAME: "pIC50"
  EXPERIMENTAL RESULT: 3.59
- COMPOUND: "CCCCN1C(=O)C2C(C1=O)[C@H]1CC[C@@H]2O1 (stereo not given in full)"
  MEASUREMENT NAME: "pIC50"
  EXPERIMENTAL RESULT: 4.90
- COMPOUND: "CCc1ccccc1NC(=O)C1C(C(=O)O)[C@@H]2CC[C@H]1O2 (stereo not given in full)"
  MEASUREMENT NAME: "pIC50"
  EXPERIMENTAL RESULT: 3.40
- COMPOUND: "O=C1OC(=O)C2C3CCC(O3)C12 (stereo not given)"
  MEASUREMENT NAME: "pIC50"
  EXPERIMENTAL RESULT: 4.30
- COMPOUND: "O=C(O)C1C(C(=O)Nc2ccccc2O)[C@H]2CC[C@@H]1O2 (stereo not given in full)"
  MEASUREMENT NAME: "pIC50"
  EXPERIMENTAL RESULT: 3.42

[in] Reported pIC50 for O=C(O)C1C(C(=O)NCc2ccc(C(F)(F)F)cc2)[C@H]2CC[C@@H]1O2 (stereo not given in full) : what is it?
[out] 3.36

[in] Reported pIC50 for CCCCCOc1ccc(NC(=O)C2C(C(=O)O)[C@@H]3CC[C@H]2O3)cc1 (stereo not given in full) : what is it?
[out] 3.48

[in] Reported pIC50 for O=C(O)C1C(C(=O)Nc2ccc(I)cc2)[C@H]2CC[C@@H]1O2 (stereo not given in full) : what is it?
[out] 3.61

[in] Reported pIC50 for C=CCNC(=O)C1C(C(=O)O)[C@@H]2CC[C@H]1O2 (stereo not given in full) : what is it?
[out] 5.52

====

# Species on record: Homo sapiens
# PROTOCOL SUMMARY: Inhibition of human PP1 at 100 uM
MEASUREMENT NAME: inhibition (%)
# output: bare number, implied unit %

[in] Reported inhibition for O=C(O)C1C(C(=O)Nc2cccc3ccccc23)[C@H]2CC[C@@H]1O2 (some centres undefined) : what is it?
[out] 79

====

# PROTOCOL SUMMARY: Inhibition of human PP1
MEASUREMENT NAME: pIC50
To interpret pIC50, take it as minus log10 of a concentration measured in moles per litre.

The examples below pair each entry with its known result.
- MOLECULE: "O=C(O)C1C(C(=O)NCCCc2ccccc2)[C@H]2CC[C@@H]1O2 (stereo not given in full)"
  pIC50: 4.60
- MOLECULE: "O=C(O)C1C(C(=O)Nc2ccc(I)cc2)[C@H]2CC[C@@H]1O2 (stereo not given in full)"
  pIC50: 4.48
- MOLECULE: "CCCCCOc1ccc(NC(=O)C2C(C(=O)O)[C@@H]3CC[C@H]2O3)cc1 (stereo not given in full)"
  pIC50: 4.96

[in] Reported pIC50 for O=C(O)C1C(C(=O)Nc2ccc(CO)cc2)[C@H]2CC[C@@H]1O2 (stereo not given in full) : what is it?
[out] 4.82

[in] Reported pIC50 for CCCCNC(=O)C1C(C(=O)O)[C@@H]2CC[C@H]1O2 (stereo not given in full) : what is it?
[out] 4.15

[in] Reported pIC50 for O=C(O)CCCCCNC(=O)C1C(C(=O)O)[C@@H]2CC[C@H]1O2 (stereo not given in full) : what is it?
[out] 4.85

[in] Reported pIC50 for O=C(O)C1C(C(=O)Nc2ccccc2)[C@H]2CC[C@@H]1O2 (stereo not given in full) : what is it?
[out] 4.62

[in] Reported pIC50 for O=C(O)C1C(C(=O)Nc2cccc(Cl)c2)[C@H]2CC[C@@H]1O2 (stereo not given in full) : what is it?
[out] 4.51

[in] Reported pIC50 for CCCCCCNC(=O)C1C(C(=O)O)[C@@H]2CC[C@H]1O2 (stereo not given in full) : what is it?
[out] 4.46

[in] Reported pIC50 for O=C(O)C1C(C(=O)NCc2ccc(C(F)(F)F)cc2)[C@H]2CC[C@@H]1O2 (stereo not given in full) : what is it?
[out] 4.80
